Assay: chemical genetic growth profiling, strain panel (AID 1159580);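 further: tested at 20 µM; growth read once vehicle control cultures reached saturation at 30 °C; 1 = growth at the plate median or of vehicle wells; lower values mean less growth of the strain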
Details: S. cerevisiae deletion strains, growth OD, locus YJL166W, strain qcr8, stronger effect = lower value
Hit rate of the full screen: of about 5,500 compounds, about 2,000 (36%) were called active. Inconclusive results (about 18%) are left out. This is one part of the list.
metric: normalized growth
Answers are plain numbers.

Solved entries (count: 6):
Q: Query (molecule): CC1(C)C(=O)CC[C@@]2(C)C1C[C@@H](O)[C@@]1(C)C3=CC(=O)O[C@@H](c4ccoc4)[C@]3(C)CCC21 (some centres not stated) ; field requested: normalized growth
Result: 1.02

Q: What value of normalized growth has been reported for the following molecule? CCC(=O)OCC(=O)C1(OC(=O)CC)C(C)CC2C3C(Cl)CC4=CC(=O)C=CC4(C)C3C(O)CC21C (configuration not stated)
Result: 1

Q: What value of measured normalized growth is listed for C[C@@H]1CC[C@@]23CCC4(C)[C@@](C=CC5[C@@]6(C)CCC(=O)C(C)(C)C6CC[C@]54C)(OC2=O)C3[C@H]1C (some centres not stated) ?
Result: 1.01

Q: For `CCC(=O)NCC[C@@H]1CCc2ccc3c(c21)CCO3` , what is its reported normalized growth?
Result: 0.98

Q: Name the recorded normalized growth for `CN(C)CC[C@H](c1ccc(Cl)cc1)c1ccccn1` .
Result: 0.985

Q: So what does the record say about normalized growth for C[C@@H]1CC[C@@]23CCC4(C)[C@@](C=CC5[C@@]6(C)CC[C@H](O)C(C)(C)C6CC[C@]54C)(OC2=O)C3[C@H]1C (some centres not stated) ?
Result: 1.01

--- query ---
Q: Entry under review: CC(=O)O[C@@H]1CC2C(C)(CC[C@H](O)C2(C)C)C2CC[C@]3(C)C(=CC(=O)O[C@H]3c3ccoc3)C21C (some centres not stated) . Reported normalized growth?
Result: 1

====

Assay: chemical genetic growth profiling, strain panel (AID 1159580);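 further: tested at 20 µM; growth read once vehicle control cultures reached saturation at 30 °C; 1 = growth at the plate median or of vehicle wells; lower values mean less growth of the strain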
Conditions: S. cerevisiae deletion strains, growth OD, locus YIL125W, strain kgd1, stronger effect = lower value
About 2,000 (36%) of roughly 5,500 compounds were called active. Another 18% or so got no clear call; they are omitted. The list shows a part of the results.
metric: normalized growth

Worked cases, answers included:
Q: Bench note: what normalized growth did CC1(C)C(O)CC(=O)C2(C)C1CC(O)C1(C)C2CCC2(C)C(c3ccoc3)OC(=O)C3OC321 (stereo unspecified) show?
Result: 1 (inactive)

Q: Which normalized growth is reported for this compound? `CC1(C)S[C@@H]2[C@H](NC(=O)[C@@H](N)c3ccc(O)cc3)C(=O)N2[C@H]1C(=O)O`
Result: 1 (inactive)

Q: GET /values?readout=normalized growth&item= `CC[C@@]1(O)C(=O)OCc2c1cc1n(c2=O)Cc2cc3cc(O)ccc3nc2-1`
Result: 0.992 (inactive)

Q: Tell me the measured normalized growth of `COc1c(O)cc2c(c1O)[C@H]1O[C@H](CO)[C@@H](O)[C@H](O)[C@@H]1OC2=O` , please.
Result: 1.01 (inactive)

// each listed compound needs a value for normalized growth
1. CCCCCC(O)C1C(=O)OC(C)C(O)/C=C/C=C/C=C/C=C/C=C(\C)C(O)CC(O)CC(O)CC(O)CC(O)CC(O)CC1O (stereo unspecified)
2. Nc1nc(/C(=C/CC(=O)O)C(=O)N[C@@H]2C(=O)N3C(C(=O)O)=CCS[C@H]23)cs1
3. CO[C@@H]1C[C@H](O[C@H]2CC[C@]3(C)C4CC[C@]5(C)[C@@H](C6=CC(=O)OC6)CC[C@]5(O)[C@@H]4CC[C@]3(O)C2)O[C@H](C)[C@@H]1O (stereo partly specified)
4. CO[C@@H]1[C@@H](OC(N)=O)[C@@H](O)[C@H](Oc2ccc3c(O)c(NC(=O)c4ccc(O)c(CC=C(C)C)c4)c(=O)oc3c2C)OC1(C)C
5. NC(=O)c1ccc([N+](=O)[O-])cc1Cl

Result:
["1.03 (inactive)", "0.994 (inactive)", "0.926 (active)", "0.964 (inactive)", "0.989 (inactive)"]

Okay, here is my list. What is normalized growth for each of these?
1. NC(=O)c1cc([N+](=O)[O-])cc([N+](=O)[O-])c1
2. COC1=CC(=O)C=C(OC)C1=O

Result:
1. 1 (inactive)
2. 0.995 (inactive)
